The reported measurements were obtained from ChEMBL document CHEMBL1148442.

Each entry below carries its measured pKi, system: D(2) dopamine receptor (Homo sapiens) (UniProt P14416).
Sequence (P14416 whole entry): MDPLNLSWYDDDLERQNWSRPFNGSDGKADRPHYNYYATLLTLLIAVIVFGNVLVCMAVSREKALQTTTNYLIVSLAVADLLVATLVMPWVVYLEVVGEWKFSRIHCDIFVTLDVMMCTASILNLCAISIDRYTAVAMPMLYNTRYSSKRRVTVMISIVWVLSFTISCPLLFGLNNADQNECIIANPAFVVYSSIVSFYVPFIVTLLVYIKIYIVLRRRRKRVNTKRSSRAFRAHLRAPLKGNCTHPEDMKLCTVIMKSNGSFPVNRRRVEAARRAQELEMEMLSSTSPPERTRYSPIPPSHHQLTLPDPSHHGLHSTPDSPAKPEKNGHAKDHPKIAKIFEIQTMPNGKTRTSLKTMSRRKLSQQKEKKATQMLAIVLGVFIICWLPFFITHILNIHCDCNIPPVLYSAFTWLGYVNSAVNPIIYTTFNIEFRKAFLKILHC
measured_property: pKi

# compound, recorded_value
records = [
    ("O=C(CCC[n+]1ccc(-c2ccc(Cl)cc2)cc1)c1ccc(F)cc1", "< 6"),
    ("O=C(CCCN1CCC(CO)(c2ccc(Cl)cc2)C1)c1ccc(F)cc1 (stereo not drawn)", 7.36),
    ("O=C(CCCN1CCC(C(O)c2ccc(Cl)cc2)CC1)c1ccc(F)cc1 (stereo not drawn)", 7.62),
    ("O=C(CCCN1CCC(CCO)(c2ccc(Cl)cc2)C1)c1ccc(F)cc1 (stereo not drawn)", 7.64),
    ("O=C(CCCN1CCC(O)(Cc2ccc(Cl)cc2)CC1)c1ccc(F)cc1", 8.1),
    ("O=C(CCCN1CCC(c2ccc(Cl)cc2)C1)c1ccc(F)cc1 (stereo not drawn)", 7.81),
    ("O=C(CCCN1CCCC(O)(c2ccc(Cl)cc2)CC1)c1ccc(F)cc1 (stereo not drawn)", 8.96),
    ("O=C(CCCN1CCC(CO)(c2ccc(Cl)cc2)CC1)c1ccc(F)cc1", 7.81),
]

----------
# assayed_system: D(3) dopamine receptor (Homo sapiens) (UniProt P35462)
# Sequence (P35462 whole entry): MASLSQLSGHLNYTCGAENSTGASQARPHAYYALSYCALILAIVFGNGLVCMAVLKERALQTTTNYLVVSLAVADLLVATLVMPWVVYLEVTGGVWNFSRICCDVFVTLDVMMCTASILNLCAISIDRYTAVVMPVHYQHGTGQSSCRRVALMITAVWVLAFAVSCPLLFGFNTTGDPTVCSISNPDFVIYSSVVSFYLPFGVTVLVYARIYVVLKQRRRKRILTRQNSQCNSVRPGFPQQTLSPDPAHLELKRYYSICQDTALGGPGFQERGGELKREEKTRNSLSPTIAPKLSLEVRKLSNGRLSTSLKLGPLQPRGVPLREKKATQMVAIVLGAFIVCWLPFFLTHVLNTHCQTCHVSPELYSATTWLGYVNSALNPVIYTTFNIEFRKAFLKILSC
pKi below 7 gives FALSE; pKi at or above it gives TRUE.

# compound, assigned_category
records = [
    ("O=C(CCC[n+]1ccc(-c2ccc(Cl)cc2)cc1)c1ccc(F)cc1", "FALSE"),
    ("O=C(CCCN1CCC(CO)(c2ccc(Cl)cc2)C1)c1ccc(F)cc1 (stereo not drawn)", "FALSE"),
    ("O=C(CCCN1CCC(O)(Cc2ccc(Cl)cc2)CC1)c1ccc(F)cc1", "TRUE"),
    ("O=C(CCCN1CCC(CCO)(c2ccc(Cl)cc2)C1)c1ccc(F)cc1 (stereo not drawn)", "TRUE"),
    ("O=C(CCCN1CCC(c2ccc(Cl)cc2)CC1)c1ccc(F)cc1", "TRUE"),
]

----------
# assayed_system: D(4) dopamine receptor (Homo sapiens)
measured_property: pKi

# molecule, measured_property, inequality_sign, recorded_value
records = [
    ("O=C(CCCN1CCC(CCO)(c2ccc(Cl)cc2)C1)c1ccc(F)cc1 (centres undefined)", "pKi", "=", 6.71),
    ("CN(CCCC(=O)c1ccc(F)cc1)CCCC(O)c1ccc(Cl)cc1 (centres undefined)", "pKi", "=", 6.72),
    ("O=C(CCCN1CCC(O)(Cc2ccc(Cl)cc2)CC1)c1ccc(F)cc1", "pKi", "=", 7.23),
    ("O=C(CCCN1CCC(C(O)c2ccc(Cl)cc2)CC1)c1ccc(F)cc1 (centres undefined)", "pKi", "=", 6.91),
    ("O=C(CCCN1CCC(CO)(c2ccc(Cl)cc2)CC1)c1ccc(F)cc1", "pKi", "=", 7.11),
    ("O=C(CCCN1CCC(c2ccc(Cl)cc2)C1)c1ccc(F)cc1 (centres undefined)", "pKi", "=", 7.82),
    ("O=C(CCCN1CCC(CO)(c2ccc(Cl)cc2)C1)c1ccc(F)cc1 (centres undefined)", "pKi", "=", 7.62),
    ("O=C(CCCN1CCC(c2ccc(Cl)cc2)CC1)c1ccc(F)cc1", "pKi", "=", 7.59),
    ("O=C(CCC[n+]1ccc(-c2ccc(Cl)cc2)cc1)c1ccc(F)cc1", "pKi", "<", 6),
]
